assay: Plasma half life following 3 mg/kg iv administration in rat; assay type: ADME, organism-based; design: dose 3 mg/kg, route intravenous
measured-property: half-life (h)

I: CN1CCCC(CN(C)C(=O)Cn2c(-c3ccccc3)c(C3CCCCC3)c3ccc(C(=O)O)cc32)C1 (configuration not stated)
II: CCN(CC)C1CCN(C(=O)Cn2c(-c3ccc(Cl)cc3)c(C3CCCCC3)c3ccc(C(=O)O)cc32)CC1
Task: Returns the identifier with the smallest measured half-life among I and II . Answer with the label corresponding to your selection.
Output: I

====

molecular target: pregnane X receptor (PXR, NR1I2) (Homo sapiens); test: Inhibition of pregnane X receptor mediated activation of alkaline phosphatase reporter gene at 10 uM; type: functional
Sequence (O75469 whole entry): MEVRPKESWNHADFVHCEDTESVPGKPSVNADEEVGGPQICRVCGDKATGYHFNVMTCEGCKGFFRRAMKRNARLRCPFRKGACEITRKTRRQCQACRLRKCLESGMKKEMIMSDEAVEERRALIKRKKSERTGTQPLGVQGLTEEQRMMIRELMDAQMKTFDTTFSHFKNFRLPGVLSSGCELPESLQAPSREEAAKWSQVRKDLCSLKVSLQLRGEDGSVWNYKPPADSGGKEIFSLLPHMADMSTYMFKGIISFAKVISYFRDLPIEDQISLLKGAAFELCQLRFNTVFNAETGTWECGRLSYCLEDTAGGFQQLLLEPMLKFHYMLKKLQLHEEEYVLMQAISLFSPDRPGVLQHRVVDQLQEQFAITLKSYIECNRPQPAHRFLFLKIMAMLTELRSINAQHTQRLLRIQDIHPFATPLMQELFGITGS
measured-property: inhibition at 10 µM (%)

In the examples that follow, each entry is paired with its recorded inhibition at 10 µM.
{"molecule": "CN1CCCC(CN(C)C(=O)Cn2c(-c3ccc(Cl)cc3)c(C3CCCCC3)c3ccc(C(=O)O)cc32)C1 (stereo unspecified)", "inhibition at 10 µM, %": 92}
{"molecule": "CN1CCCC(CN(C)C(=O)Cn2c(-c3ccccc3)c(C3CCCCC3)c3ccc(C(=O)O)cc32)C1 (stereo unspecified)", "inhibition at 10 µM, %": 10}
{"molecule": "CN(C)C1CCN(C(=O)Cn2c(-c3ccccc3)c(C3CCCCC3)c3ccc(C(=O)O)cc32)CC1", "inhibition at 10 µM, %": 14}
{"molecule": "CN1CCCC(CN(C)C(=O)Cn2c(-c3cccc(F)c3)c(C3CCCCC3)c3ccc(C(=O)O)cc32)C1 (stereo unspecified)", "inhibition at 10 µM, %": 72}

P: CN(C)C1CCN(C(=O)Cn2c(-c3ccc(Cl)cc3)c(C3CCCCC3)c3ccc(C(=O)O)cc32)CC1
Q: CN(C)C1CCN(C(=O)Cn2c(-c3cccc(F)c3)c(C3CCCCC3)c3ccc(C(=O)O)cc32)CC1
Task: # min-compare on inhibition at 10 µM between P and Q Respond using the label that marks the chosen record.
Output: Q

====

List of pEC50 values.
tested on: Huh-7; experiment: Effective concentration required to inhibit replication of subgenomic HCV RNA in HUH-7 cells; assay type: functional, cell-based; settings: Homo sapiens
pEC50: −log10 of the molar value.

{"smiles-representation": "CN(C)C(=O)CN(C)C(=O)Cn1c(-c2ccccc2)c(C2CCCC2)c2ccc(C(=O)O)cc21", "data-value": "< 5.30"}
{"smiles-representation": "CN(C)C(=O)CN(C)C(=O)Cn1c(-c2ccccc2)c(C2CCCCC2)c2cc(C(=O)O)ccc21", "data-value": "< 5.30"}

Now, please, on to the next compound.
Task: Find the recorded pEC50 belonging to CC(C)N(C)C(=O)Cn1c(-c2ccccc2)c(C2CCCC2)c2ccc(C(=O)O)cc21 and report it.
Output: < 5.30
